Provenance of the data: patent US12655145B2

Assay target: P2X3 (Homo sapiens)
Construct: expressed in transfected cells; host or cells: HEK293
Assay: P2X3 Antagonist Assay (FLIPR calcium, Fluo-8, HEK293 cells transfected with human ion channel cDNAs, αβ-meATP stimulation)
Format: cell-based
Reported conditions: HEK293, @ 1 μM, antagonist mode, αβ-meATP 3 μM, read-out: P2X3 IC50 column, given as % @ 1 μM
Hi, to clarify the labels: 1 covers inhibition at 1 µM from 20% upward, -1 covers anything below 20%.

Previously resolved entries follow.
Molecule: CNC(=O)c1cc(F)c(-c2nc3cc(C)ccn3c2CC2COCCN(C(=O)OC)C2)c(F)c1 (single isomer, unassigned) [A16 (Peak 1)]
Discrete label: 1
--
Molecule: COC(=O)N1CCO[C@@H](Cc2c(-c3ccc([S+](C)[O-])cc3F)nc3cc(C)ccn23)C1 (stereo partly shown) [Compound A58]
Discrete label: -1
--
Molecule: CNC(=O)c1cc(F)c(-c2nc3cc(C)ccn3c2CC2CCCC(NC(C)=O)C2)c(F)c1 (single isomer, unassigned) [trans-A22 (Peak 1)]
Discrete label: 1
--
Molecule: CNC(=O)c1cc(F)c(-c2nc3cc(C)cnn3c2C[C@H]2CN(C(=O)OC)CCO2)c(F)c1 [Compound A27]
Discrete label: -1
--
Molecule: CNC(=O)c1cc(F)c(-c2[nH]c3cc(C)ccc3c2C[C@H]2CN(C(=O)OC)CCO2)c(F)c1 [Compound A24]
Discrete label: -1

Please find the next molecule below.
Is it the case that CNC(=O)c1ccc(-c2nc3cc(C4CC4)ccn3c2C[C@H]2CN(C(=O)OC)CCO2)c(F)c1 [Compound A52] has inhibition at 1 µM reaching or exceeding 20%?
1

----------
Assay target: UniProt:P56373
Assay: P2X3 Antagonist Assay (FLIPR calcium, Fluo-8, HEK293 cells transfected with human ion channel cDNAs, αβ-meATP stimulation)
Reported conditions: antagonist mode, αβ-meATP 3 μM
What IC50 was measured for each of the following?

Answered examples (5):
Chemical structure: CCN(C)C(=O)c1ccc(-c2nc3cc(Cl)ccn3c2C[C@H]2CN(C(=O)OC)CCO2)c(F)c1
Result: < 100 nM
--
Chemical structure: CNC(=O)c1ccc(-c2nc3cc(C(F)F)ccn3c2C[C@H]2CN(C(=O)OC)CCO2)c(C)c1
Result: < 100 nM
--
Chemical structure: CCc1ccn2c(C[C@H]3CN(C(=O)OC)CCO3)c(-c3ccc(C(=O)NC)cc3F)nc2c1
Result: < 100 nM
--
Chemical structure: CNC(=O)c1ccc(-c2nc3cc(Cl)ccn3c2C[C@H]2CN(C(C)=O)CCO2)c(F)c1
Result: 100 to 1000 nM
--
Chemical structure: CNC(=O)c1cc(F)c(-c2nc3cc(F)ccn3c2C[C@H]2CN(C(=O)OC)CCO2)c(F)c1
Result: 100 to 1000 nM

Give measured IC50 for every item shown.
1. CNC(=O)c1cc(F)c(-c2cc3cc(C)cnc3n2C[C@H]2CN(C(=O)OC)CCO2)c(F)c1
2. CNC(=O)c1cc(F)c(-c2nc3cc(C)ccn3c2CC2CCN(C(=O)OC)CC2)c(F)c1

1: > 1000 nM; 2: < 100 nM

----------
What pIC50 was measured for each of the following?
Assay target: P2X3 (Homo sapiens, UniProt P56373)
Construct: expressed in transfected cells; host or cells: HEK293
Assay: P2X3 Antagonist Assay (FLIPR calcium, Fluo-8, HEK293 cells transfected with human ion channel cDNAs, αβ-meATP stimulation)
Type: cell-based
Reported conditions: antagonist mode, αβ-meATP 3 μM
pIC50: −log10 of the molar value.

Answered examples (2):
Compound: CNC(=O)c1cc(F)c(-c2nc3cc(C)ccn3c2C[C@@H]2CCCN(C(=O)OC)C2)c(F)c1 [(S)-A19]
Result: > 7.00

Compound: CNC(=O)c1ccc(-c2nc3cc([S+](C)[O-])ccn3c2C[C@H]2CN(C(=O)OC)CCO2)c(F)c1 (single isomer, unassigned) [A47 (Peak 2)]
Result: < 6.00

Give measured pIC50 for every item shown.
1. CNC(=O)c1cc(C)c(-c2nc3cc(C)ccn3c2C[C@H]2CN(C(=O)OC)CCO2)cc1F [Compound A12]
2. CNC(=O)c1cc(F)c(-c2nc3cc(C)ncn3c2C[C@H]2CN(C(=O)OC)CCO2)c(F)c1 [Compound A29]
3. CNC(=O)c1cc(F)c(-c2c(C[C@H]3CN(C(=O)OC)CCO3)nc3cc(C)ncn23)c(F)c1 [Compound A37]

> 7.00
> 7.00
6.00 to 7.00

Give measured pIC50 for every item shown.
1. CNC(=O)c1cc(F)c(-c2nc3cc(C(F)F)ccn3c2C[C@H]2CN(C(=O)OC)CCO2)c(OC)c1F [Compound A41]
2. CNC(=O)c1cc(F)c(-c2nc3cc(C)ccn3c2CC2CCCC(NC(C)=O)C2)c(F)c1 (single isomer, unassigned) [cis-A22 (Peak 1)]

1. 6.00 to 7.00
2. > 7.00

----------
Assay target: P2X3 (Homo sapiens, UniProt P56373)
Sequence (P56373 1-397): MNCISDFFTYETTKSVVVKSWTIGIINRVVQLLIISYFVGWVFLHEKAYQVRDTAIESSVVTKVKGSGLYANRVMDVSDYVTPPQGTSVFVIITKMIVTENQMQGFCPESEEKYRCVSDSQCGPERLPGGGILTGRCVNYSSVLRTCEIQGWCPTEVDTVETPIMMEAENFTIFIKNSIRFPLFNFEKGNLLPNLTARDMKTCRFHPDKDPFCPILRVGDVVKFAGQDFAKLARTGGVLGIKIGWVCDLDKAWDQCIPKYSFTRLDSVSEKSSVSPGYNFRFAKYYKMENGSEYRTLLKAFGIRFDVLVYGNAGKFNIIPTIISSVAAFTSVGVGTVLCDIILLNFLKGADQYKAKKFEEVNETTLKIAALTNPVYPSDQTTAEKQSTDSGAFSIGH
Assay: P2X3 Antagonist Assay (FLIPR calcium, Fluo-8, HEK293 cells transfected with human ion channel cDNAs, αβ-meATP stimulation)
Reported conditions: antagonist mode, αβ-meATP 3 μM
Test readout: IC50

Answered examples (6):
Molecule: COC(=O)N1CCO[C@@H](Cc2c(-c3ccc(C(=O)N4CC[C@H](O)C4)cc3F)nc3cc(Cl)ccn23)C1 [Compound A68]
Assay target: P2X3 (Homo sapiens, UniProt P56373)
Result: 100 to 1000 nM
--
Molecule: CNC(=O)c1ccc(-c2nc3cc(CF)ccn3c2C[C@H]2CN(C(=O)OC)CCO2)c(F)c1 [Compound A49]
Assay target: P2X3 (Homo sapiens, UniProt P56373)
Result: 100 to 1000 nM
--
Molecule: CNC(=O)c1cc(F)c(-c2nc3cc(Cl)ccn3c2C[C@H]2CN(C(=O)OC)CCO2)c(OC)c1F [Compound A40]
Assay target: P2X3 (Homo sapiens, UniProt P56373)
Result: < 100 nM
--
Molecule: CNC(=O)c1ccc(-c2nc3cc(C)ccn3c2C[C@H]2CN(C(=O)OC)CCO2)c(Cl)c1 [Compound A8]
Assay target: P2X3 (Homo sapiens, UniProt P56373)
Result: < 100 nM
--
Molecule: CNC(=O)c1ccc(-c2nc3cc(C(O)C(F)(F)F)ccn3c2C[C@H]2CN(C(=O)OC)CCO2)c(F)c1 (single isomer, unassigned) [A46 (Peak 2)]
Assay target: P2X3 (Homo sapiens, UniProt P56373)
Result: > 1000 nM
--
Molecule: CNC(=O)c1ccc(-c2nc3cc(C(F)F)ccn3c2C[C@H]2CN(C(=O)OC)CCO2)c(F)c1 [Compound A42]
Assay target: P2X3 (Homo sapiens, UniProt P56373)
Result: < 100 nM

In the following, a different molecule is considered.
Which value of IC50 has been reported for CNC(=O)c1cc(F)c(-c2nc3cc(C)ccn3c2CC2CCCC(NC(C)=O)C2)c(F)c1 (single isomer, unassigned) [cis-A22 (Peak 2)] in the records?
< 100 nM

----------
Assay target: P2X3 (Homo sapiens)
Construct: expressed in transfected cells; host or cells: HEK293
Assay: P2X3 Antagonist Assay (FLIPR calcium, Fluo-8, HEK293 cells transfected with human ion channel cDNAs, αβ-meATP stimulation)
Assay type: cell-based
Reported conditions: HEK293, @ 1 μM, antagonist mode, αβ-meATP 3 μM, read-out: P2X3 IC50 column, given as % @ 1 μM
Test readout: inhibition at 1 µM (%)
Numbers only, in %.

Compound: CNC(=O)c1cc(F)c(-c2c(C[C@H]3CN(C(=O)OC)CCO3)nc3nc(C)ccn23)c(F)c1 [Compound A33]
Assay target: P2X3 (Homo sapiens)
Unit info: %
inhibition at 1 µM: 5

Compound: CNC(=O)c1cc(F)c(-c2nc3cc(C)ccn3c2CC2CCCCN(C(=O)OC)C2)c(F)c1 (single isomer, unassigned) [A17 (Peak 1)]
Assay target: P2X3 (Homo sapiens)
Unit info: %
inhibition at 1 µM: 30

inhibition at 1 µM of CNC(=O)c1cc(F)c(-c2nc3cc(C)ccn3c2CC2CN(C(=O)OC)CCCO2)c(F)c1 (single isomer, unassigned) [A14 (Peak 1)] on P2X3 (Homo sapiens)?
39
